Experiment: viability gain of MRP-1-high H69AR cells under doxorubicin, pilot screen, MRP-1 activator project, CellTiter-Glo, duplicate (AID 807);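 also: compound pretreatment 18-22 h then 72 h combined with doxorubicin; 0% = doxorubicin alone and 100% = vehicle without doxorubicin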
Conditions: H69AR viability with doxorubicin, CellTiter-Glo luminescence; at 10 µM; stronger effect = higher value
Please provide measured viability increase for the entries that follow.
Supply the numeric figure in %, leaving out any unit text.

Qu. Request the reported viability increase associated with `O=C(Nc1ccccc1)N(CCc1ccncc1)C1CCCCC1`
Ans. -2.85

Qu. // query: `Cc1cc2cc(CN(Cc3ccc4c(c3)OCO4)C(=O)c3cnccn3)c3nnnn3c2cc1C`
Ans. -5.49

Qu. // query: `CCc1ccc(NC(=O)CN(c2ccc3c(c2)OCO3)S(=O)(=O)c2c(C)noc2C)cc1`
Ans. 0.12

Qu. // query: `Cc1ccc(C(=O)COC(=O)c2ccc(Br)o2)cc1C`
Ans. 1.02

Qu. // query: `Cc1ccc(S(=O)(=O)c2nc(-c3ccc(F)cc3)oc2SCC(N)=O)cc1`
Ans. -2.75

Qu. // query: O=C(Nc1cccnc1)C(Cc1ccccc1)n1cccc1 (stereo unspecified)
Ans. -4.93

###

Please provide measured inhibition for the entries that follow.
Assay: inhibitors of the yeast RAM network, pilot screen, dse1pr::URA3 reporter, 5-FOA selection (AID 869);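 also: 0% = DMSO wells with no growth and 100% = 10 µM 1-NA-PP1 with full growth; RAM network block rescues cells from 5-FOA so hits raise OD615 growth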
Settings: S. cerevisiae dse1pr::URA3 5-FOA growth, OD615, 2 d; at 10 µM; stronger effect = higher value; strain carries analog-sensitive mutant Cbk1 kinase
Supply the numeric figure in %, leaving out any unit text.

Qu. Request the reported inhibition associated with `Cc1c(C(=O)NCc2ccc3c(c2)OCO3)sc2nc(-c3ccc(F)cc3)cn12`
Ans. 2.14

Qu. // query: `O=C(NC1CCCCC1)C1CCN(S(=O)(=O)c2cccc3cccnc23)CC1`
Ans. 0.46

Qu. // query: `Cc1cccc(OCc2nnc(SCC(=O)Nc3ccc(C)c(C)c3)o2)c1`
Ans. 4.2

Qu. // query: OCC1(C2=NOC(O)(C(F)(F)F)C2)CCCCC1 (stereo unspecified)
Ans. 2.09

Qu. // query: `CCCN1CCN(C(=O)C2CCN(S(=O)(=O)c3ccc4c(c3)oc(=O)n4C)CC2)CC1`
Ans. 3.06

Qu. // query: `Cc1ccnc(Sc2nc3c(c(=O)[nH]c(=O)n3C)n2CCCc2ccccc2)n1`
Ans. 1.6

Qu. // query: `Cc1ccc(Cc2cnc(N)s2)o1`
Ans. 2.06

Qu. // query: CC1CCCCN1c1nnc(NC(=O)Cn2c(=O)oc3ccccc32)s1 (stereo unspecified)
Ans. -0.575

Qu. // query: OC(COc1ccc(C2C=CCC2)cc1)CN1CCCCC1 (stereo unspecified)
Ans. 1.75

Qu. // query: `CCn1c(=NC(=O)CN2C(=O)CCC2=O)sc2c(OC)ccc(OC)c21`
Ans. 2.75

Qu. // query: COc1ccc(C2C=C(c3ccc(C)c(C)c3)Nc3ncnn32)c(OC)c1OC (stereo unspecified)
Ans. 0.775

###

Test: HUVEC growth inhibition – cell-based, human, primary screen (AID 575);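 also: 100% = median of untreated cell wells with 0.1% DMSO on each plate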
Conditions: HUVEC proliferation, CellTiter-Glo luminescence, 72 h; at 10 µM; stronger effect = lower value
REPORTED_ENDPOINT: viability (%)
Supply the numeric figure in %, leaving out any unit text.

Qu. Request the reported viability associated with `O=C(OCC(=O)N1CCCC1)c1ccccc1OCc1ccccc1`
Ans. 73.2

Qu. // query: `CCOC(=O)C1CCN(c2c(N(C)Cc3ccco3)c(=O)c2=O)CC1`
Ans. 93

Qu. // query: `CC[N+](C)(C)c1cccc(O)c1`
Ans. 81.1

Qu. // query: CCC(Sc1nc(-c2ccccc2)c(C#N)c(=O)[nH]1)C(=O)Nc1cc(C)on1 (stereo unspecified)
Ans. 83

Qu. // query: Cc1ccc(-c2nnn(CC(=O)N(Cc3ccco3)C(C(=O)NC(C)(C)C)c3cccs3)n2)o1 (stereo unspecified)
Ans. 89.1

Qu. // query: `Nc1ccc(C(=O)OCCCc2nc3ccccc3[nH]2)cc1`
Ans. 97.9

Qu. // query: `Cc1ccc(-n2ncc(C(=O)N3CCc4ccccc4C3)c2NC(=O)c2ccco2)cc1C`
Ans. 83.6

Qu. // query: CCOC(=O)N1CCN(C(=O)C2c3cc(OC)c(OC)cc3C(=O)N3CCc4ccccc4C23)CC1 (stereo unspecified)
Ans. 102

Qu. // query: `COc1ccc(N2CCN(c3ncnc4c3cnn4-c3ccc(C)cc3C)CC2)cc1`
Ans. 87.1

Qu. // query: `O=C(OCc1cc2ccccc2[nH]c1=O)c1ccco1`
Ans. 95.9

Qu. // query: `NC(=O)NC(=O)CSc1cccc(C(F)(F)F)c1`
Ans. 90.1
